Values compiled from paper PMC6001238.

# Tested on: E. faecalis VRE 53
# run_description: MIC, broth microdilution, vancomycin-resistant E. faecalis VRE 53 (VanA)
# Format: cell-based, Enterococcus faecalis
# condition_set: Enterococcus faecalis VRE 53 (vancomycin-resistant); read-out: MIC
measurement_kind: MIC (µM)
Give the number; µM is assumed, so skip it.

The cases that follow already have their MIC on record.
# compound, MIC [µM]
data = [
    ("CNC(CC(C)C)C(=O)NC1C(=O)NC(CC(N)=O)C(=O)NC2C(=O)NC3C(=O)NC(C(=O)NC(C(=O)NCC(=O)Nc4ccc(-c5ccc(Cl)cc5)cc4)c4cc(O)cc(O)c4-c4cc3ccc4O)C(O)c3ccc(c(Cl)c3)Oc3cc2cc(c3OC2OC(CO)C(O)C(O)C2OC2CC(C)(N)C(O)C(C)O2)Oc2ccc(cc2Cl)C1O (stereo not drawn) [Vanc-84]", 3.13),
    ("CN[C@H](CC(C)C)C(=O)N[C@H]1C(=O)N[C@@H](CC(N)=O)C(=O)N[C@H]2C(=O)N[C@H]3C(=O)N[C@H](C(=O)N[C@H](C(=O)NCC(=O)Nc4cccc5ccccc45)c4cc(O)cc(O)c4-c4cc3ccc4O)[C@H](O)c3ccc(c(Cl)c3)Oc3cc2cc(c3O[C@@H]2O[C@H](CO)[C@@H](O)[C@H](O)[C@H]2O[C@H]2C[C@](C)(N)[C@H](O)[C@H](C)O2)Oc2ccc(cc2Cl)[C@H]1O [Vanc-41]", 25),
    ("CNC(CC(C)C)C(=O)NC1C(=O)NC(CC(N)=O)C(=O)NC2C(=O)NC3C(=O)NC(C(=O)NC(C(=O)NCC(=O)NC4c5ccccc5-c5ccccc54)c4cc(O)cc(O)c4-c4cc3ccc4O)C(O)c3ccc(c(Cl)c3)Oc3cc2cc(c3OC2OC(CO)C(O)C(O)C2OC2CC(C)(N)C(O)C(C)O2)Oc2ccc(cc2Cl)C1O (stereo not drawn) [Vanc-90]", 12.5),
]

Could you share which MIC value was measured for CCCCCCCc1ccc(C(=O)NCCCNC(=O)C2NC(=O)C3NC(=O)C(NC(=O)C4NC(=O)C(CC(N)=O)NC(=O)C(NC(=O)C(CC(C)C)NC)C(O)c5ccc(c(Cl)c5)Oc5cc4cc(c5OC4OC(CO)C(O)C(O)C4OC4CC(C)(N)C(O)C(C)O4)Oc4ccc(cc4Cl)C3O)c3ccc(O)c(c3)-c3c(O)cc(O)cc32)cc1 (stereo not drawn) [Vanc-31] ?
3.13

Please give the result for CNC(CC(C)C)C(=O)NC1C(=O)NC(CC(N)=O)C(=O)NC2C(=O)NC3C(=O)NC(C(=O)NC(C(=O)NCC(=O)Nc4ccc(C#CC5CC5)cc4)c4cc(O)cc(O)c4-c4cc3ccc4O)C(O)c3ccc(c(Cl)c3)Oc3cc2cc(c3OC2OC(CO)C(O)C(O)C2OC2CC(C)(N)C(O)C(C)O2)Oc2ccc(cc2Cl)C1O (stereo not drawn) [Vanc-70] too.
6.25

Field entry: CCc1ccc(NC(=O)CNC(=O)[C@H]2NC(=O)[C@H]3NC(=O)[C@H](NC(=O)[C@@H]4NC(=O)[C@H](CC(N)=O)NC(=O)[C@H](NC(=O)[C@@H](CC(C)C)NC)[C@H](O)c5ccc(c(Cl)c5)Oc5cc4cc(c5O[C@@H]4O[C@H](CO)[C@@H](O)[C@H](O)[C@H]4O[C@H]4C[C@](C)(N)[C@H](O)[C@H](C)O4)Oc4ccc(cc4Cl)[C@H]3O)c3ccc(O)c(c3)-c3c(O)cc(O)cc32)cc1 [Vanc-13]
12.5
